# tested-system: Dual specificity protein kinase CLK3 (Homo sapiens)
# Sequence (P49761 whole entry): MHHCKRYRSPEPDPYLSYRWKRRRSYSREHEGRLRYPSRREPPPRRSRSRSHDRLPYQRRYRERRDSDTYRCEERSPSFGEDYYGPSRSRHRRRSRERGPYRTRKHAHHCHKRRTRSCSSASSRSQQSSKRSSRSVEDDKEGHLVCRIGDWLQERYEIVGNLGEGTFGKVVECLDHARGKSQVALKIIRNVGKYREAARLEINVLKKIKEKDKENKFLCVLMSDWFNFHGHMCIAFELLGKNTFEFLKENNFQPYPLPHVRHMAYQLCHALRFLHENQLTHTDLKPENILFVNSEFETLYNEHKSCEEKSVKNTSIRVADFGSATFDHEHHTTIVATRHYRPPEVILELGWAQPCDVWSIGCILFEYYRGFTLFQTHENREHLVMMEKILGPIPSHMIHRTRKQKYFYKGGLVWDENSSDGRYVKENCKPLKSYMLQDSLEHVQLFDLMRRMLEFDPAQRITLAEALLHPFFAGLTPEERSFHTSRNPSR
# method-description: Inhibition of recombinant CLK3 (unknown origin) using Ser/Thr 18 peptide as substrate incubated for 1 hr in presence of ATP by FRET assay
Documented EC50 across a set of compounds

# structure-smiles-string, tested-system, reported
data = [
    ("CN1CC2CCC(C1)N2C(=O)Nc1cc2cc(-c3cnn(C)c3)ccc2cn1", "Dual specificity protein kinase CLK3 (Homo sapiens)", "> 10 µM"),
]

Request: # input compound: `CN(C)CCNc1cc(F)cc(-c2cccc3[nH]c(-c4n[nH]c5cnc(-c6cncc(NC(=O)C(C)(C)C)c6)cc45)cc23)c1` ; wanted: its EC50
Result: 0.049 µM

Request: # input compound: `CN(C)CCOc1cncc(-c2cc3c(-c4cc5c(-c6ccc(F)cc6)nccc5[nH]4)n[nH]c3cn2)c1` ; wanted: its EC50
Result: > 10 µM

Request: # input compound: `O=C(Nc1ccc(OCCN2CCCC2)nc1)c1n[nH]cc1C#Cc1cccnc1` ; wanted: its EC50
Result: > 10 µM

Request: # input compound: `COc1cccc(-c2cncc3[nH]c(-c4n[nH]c5ccc(-c6cn[nH]c6)nc45)nc23)c1` ; wanted: its EC50
Result: > 10 µM

###

Documented EC50 across a set of molecules
# method-description: Effect on Wnt signaling pathway in human SW480 cells harbouring TCF/LEF luciferase reporter gene and SP5-Luc reporter gene incubated for 36 to 48 hrs by luminescence assay
# Type: cell-based

Consider the following illustrative entries.
# structure-smiles-string, EC50
data = [
    ("CCCC(=O)Nc1cncc(-c2ccc3[nH]nc(-c4cc5c(-c6ccncc6)cncc5[nH]4)c3c2)c1", "> 10 µM"),
    ("CC(C)C(=O)Nc1cncc(-c2cc3c(-c4cc5c(-c6cc(F)cc(CNS(C)(=O)=O)c6)nccc5[nH]4)n[nH]c3cn2)c1", "> 10 µM"),
]

Request: # input molecule: `O=C(Nc1cncc(-c2cc3c(-c4cc5c(-c6cccnc6)cccc5[nH]4)n[nH]c3cn2)c1)C1CC1` ; wanted: its EC50
Result: 0.33 µM

###

# method-description: Effect on Wnt signaling pathway in human SW480 cells harbouring TCF/LEF luciferase reporter gene and SP5-Luc reporter gene incubated for 36 to 48 hrs by luminescence assay
# Format: cell-based
property-measured: log10(EC50) (log10 of the value in nM)
Give log10 of EC50, with EC50 taken in nM.

Consider the following illustrative entries.
# structure-smiles-string, property-measured, reported
records = [
    ("FC1(F)CCN(Cc2cncc(-c3ccc4[nH]nc(-c5cc6c(N7CCCCC7)ccnc6[nH]5)c4n3)c2)C1", "log10(EC50)", 3.72),
    ("Cc1n[nH]c2ccc(-c3cncc(NCC4(F)CNC4)n3)cc12", "log10(EC50)", 2.89),
    ("CN(C)CCNc1cc(F)cc(-c2cccc3[nH]c(-c4n[nH]c5cnc(-c6cncc(NC(=O)C(C)(C)C)c6)cc45)cc23)c1", "log10(EC50)", 2.59),
]

Request: # input molecule: `O=C(Nc1cccnc1)c1n[nH]c2ccc(-c3cncc(NC(=O)N4CCOCC4)c3)cc12` ; wanted: its log10(EC50)
Result: 3.10

Request: # input molecule: `O=C(Nc1cc2cc(-c3cncc(NC4CCNCC4)n3)ncc2cn1)C1CCOCC1` ; wanted: its log10(EC50)
Result: 3.56
